Measured values drawn from patent US8378117B2 for this set.

Target: CB2 receptor (Homo sapiens, UniProt P34972)
Construct: expressed in transfected cells
Sequence (P34972 whole entry): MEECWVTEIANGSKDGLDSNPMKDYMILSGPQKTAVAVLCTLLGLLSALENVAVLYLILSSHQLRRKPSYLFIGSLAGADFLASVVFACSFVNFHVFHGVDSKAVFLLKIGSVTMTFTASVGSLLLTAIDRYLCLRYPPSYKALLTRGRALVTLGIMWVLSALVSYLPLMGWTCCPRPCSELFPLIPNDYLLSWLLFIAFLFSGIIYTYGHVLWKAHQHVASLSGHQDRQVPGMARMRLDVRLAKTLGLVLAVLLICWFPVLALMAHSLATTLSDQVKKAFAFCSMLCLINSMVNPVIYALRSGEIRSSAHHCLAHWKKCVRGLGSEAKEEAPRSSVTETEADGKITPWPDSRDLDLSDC
Test: Binding assay for CB2 agonists or inverse agonists (SK-N-MC membranes, [3H]-CP-55,940)
Conditions: Cannabinoid CB2 Receptor Binding IC50, calculated by linear regression from percent inhibition at various test concentrations
pIC50: −log10 of the molar value.
Reported property: pIC50

>  <Compound>
CC12CCC(C1)C(C)(C)[C@H]2NC(=O)c1nn(-c2ccc(F)cc2F)c2c1CCCCC2Cc1cccc(F)c1 (stereo partly shown) [Cpd 92]

>  <Result value>
6.70

$$$$
>  <Compound>
C[C@H](NS(=O)(=O)/C=C/c1nn(C)c2c1CCCCC2Cc1ccc(F)cc1)c1ccccc1 (stereo partly shown) [Cpd 101]

>  <Result value>
7.40

$$$$
>  <Compound>
COC(=O)[C@@H](Cc1ccc(O)cc1)NC(=O)c1nn(C2CCCCC2)c2c1CCCCC2Cc1ccc(F)cc1 (stereo partly shown) [Cpd 83]

>  <Result value>
8.00

$$$$
>  <Compound>
COC(=O)[C@H](Cc1ccc(F)cc1)NC(=O)c1n[nH]c2c1CCCC/C2=C\c1cccc(Cl)c1 [Cpd 240]

>  <Result value>
7.40

$$$$
